Tested on: HCT-116
procedure details: Antiproliferative assay, HCT-116
Format: cell-based
particulars: Homo sapiens, HCT-116, read-out: IC50 HCT-116
measurement label: pIC50
# log scale: pIC50 equals minus log10 of the concentration in mol/L

Any idea what its pIC50 is? The compound is NS(=O)(=O)c1ccc2c(c1)[n+]([O-])c(C(F)(F)F)c(C(=O)c1ccccc1)[n+]2[O-]
5.89

Could you do the same for N#Cc1c(-c2ccccc2)[n+]([O-])c2cc(S(N)(=O)=O)ccc2[n+]1[O-] , please?
4.32

Then what about the compound N#Cc1c(-c2ccc(Cl)cc2)[n+]([O-])c2cc(S(N)(=O)=O)ccc2[n+]1[O-] ?
4.46

Continue with CCOC(=O)c1c(C)[n+]([O-])c2cc(S(N)(=O)=O)ccc2[n+]1[O-]
5.57

Same for CC(=O)c1c(C)[n+]([O-])c2cc(S(N)(=O)=O)ccc2[n+]1[O-]
4.16

Another compound to check: COc1cc([C@@H]2c3cc4c(cc3[C@@H](O[C@@H]3O[C@@H]5CO[C@@H](C)O[C@H]5[C@H](O)[C@H]3O)[C@H]3COC(=O)[C@H]23)OCO4)cc(OC)c1O [Etoposide, etoposide, reference compound]
5.64

Reference source: paper PMC11265520
